The reader will find reported inhibition values listed item by item below.
assay explanation: 384-well plate pilot, post-Golgi transport modulator project, inhibition of yeast transport mutant growth (AID 636)
experimental setup: absorbance 615 nm, about 18 h, active compounds read high
Square brackets hold non-standard residues; d marks the D form. Peptide text beside a SMILES is read from it. * marks the point of attachment. ξ: configuration not given here. Piv = CC(C)(C)C(=O)*; ξNva = CCCC(N)C(=O)O
measurement type: inhibition (%)

[[record]]
molecule = "Cc1sc2nc(CN3CCN(S(=O)(=O)c4cccc5nonc45)CC3)[nH]c(=O)c2c1C"
readout_unit = "%"
observed_result = -6.05

[[record]]
molecule = "Fc1cc(F)c(F)c(SCCc2ccncc2)c1F"
readout_unit = "%"
observed_result = 0.67

[[record]]
molecule = "O=C(c1cnn2c(C(F)F)cc(C3CC3)nc12)N1CCOCC1"
readout_unit = "%"
observed_result = -3.29

[[record]]
molecule = "O=C(NCc1cccs1)C1CCN(S(=O)(=O)c2cccs2)CC1"
readout_unit = "%"
observed_result = -5.19

[[record]]
molecule = "Cc1ccc(S(=O)(=O)CC(=O)N2CCCCCC2)cc1"
readout_unit = "%"
observed_result = -5

[[record]]
molecule = "COc1ccc(NC(=O)Nc2ccc(C)cc2OC(F)F)cc1OC"
readout_unit = "%"
observed_result = -3.95

[[record]]
molecule = "COc1cc(C(=O)Nc2ccc3c(c2)C(=O)N(CCC(=O)O)C3=O)cc(OC)c1OC"
readout_unit = "%"
observed_result = -3.42

[[record]]
molecule = "COc1ccc(-c2cc(C(F)F)n3ncc(C(=O)NCC4CCCO4)c3n2)cc1 (stereo unspecified)"
readout_unit = "%"
observed_result = -0.79

[[record]]
molecule = "O=C(Nc1ccccc1N1CCOCC1)c1ccc2ccccc2n1"
readout_unit = "%"
observed_result = -4.74

[[record]]
molecule = "CCCC(NC(=O)CNC(=O)C(C)(C)C)C(=O)O (stereo not drawn) (Piv-Gly-[ξNva]-OH)"
readout_unit = "%"
observed_result = -2

[[record]]
molecule = "CSc1ccc(Cn2nnc(C(=O)NCc3ccccc3)c2N)cc1"
readout_unit = "%"
observed_result = -1.87


----------
assay explanation: SK-BR-3 cell growth inhibitors, pilot screen, 24 h, human (AID 572);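 also: compound exposure lasted between 18 and 24 h rather than exactly 24 h; 100% = carrier-treated control wells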
experimental setup: SK-BR-3 viability, CellTiter-Glo luminescence, at 10 µM, active compounds read low
Active and inactive are the calls of the source.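 How the source made its calls: active means viability at or below 10% of carrier control in both of two separate runs; inconclusive means viability at or below 10% in only one of the two runs; inactive means the rest.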
The reader will find reported viability values listed item by item below.
measurement type: viability

[[record]]
compound = "CCOC(=O)CSc1nc2cc(C(=O)NCc3ccco3)ccc2c(=O)n1-c1ccc(F)cc1"
observed_result = "86.5% (inactive)"

[[record]]
compound = "CCc1nnc(NC(=O)CSc2nnc3scc(-c4ccc(C)cc4)n23)s1"
observed_result = "100% (inactive)"

[[record]]
compound = "COCCOC(=O)C1=C(C)Nc2ncnn2C1c1ccc(F)cc1 (stereo unspecified)"
observed_result = "90% (inactive)"

[[record]]
compound = "CCOC(=O)c1[nH]c2ccc(C)cc2c1N=C(C)N(C)C"
observed_result = "100% (inactive)"

[[record]]
compound = "Cc1nnc(SCC(=O)N2c3ccccc3CC2C)s1 (stereo unspecified)"
observed_result = "105% (inactive)"

[[record]]
compound = "O=C(CSc1ncnc2c1oc1ccccc12)Nc1ccccc1F"
observed_result = "96.5% (inactive)"

[[record]]
compound = "COc1ccc(C2/C(=C(/O)c3ccccc3)C(=O)C(=O)N2C)cc1 (stereo unspecified)"
observed_result = "102% (inactive)"

[[record]]
compound = "CCc1ccccc1NC(=O)CN(c1cccc(OC)c1)S(C)(=O)=O"
observed_result = "112% (inactive)"

[[record]]
compound = "C=C(C)Cn1c(SCC)nc2ccccc2c1=O"
observed_result = "93% (inactive)"

[[record]]
compound = "Cc1ccc(/C(O)=C2\\C(=O)C(=O)N(CCCN(C)C)C2c2ccccn2)cc1 (stereo unspecified)"
observed_result = "101% (inactive)"

[[record]]
compound = "CCOc1cc(-c2nc3ccccn3c2NCC2CCCO2)ccc1O (stereo unspecified)"
observed_result = "69.5% (inactive)"

